FYI, the data here is from ChEMBL document CHEMBL3045169.

// reported zone of inhibition at 100 µg/mL per item
# Test system: Staphylococcus aureus
# assay explanation: Antibacterial activity against Staphylococcus aureus ATCC 9144 at 100 ug/ml by agar cup-plate method
# Type: functional
# experimental parameters: read-out: IZ
value kind: zone of inhibition at 100 µg/mL

molecule	system name	observed measurement
COc1ccccc1C1CC(Nn2c(Cc3ccccc3Nc3ccccc3)nc3ccc(I)cc3c2=O)=NN1 (centres undefined)	Staphylococcus aureus	9 mm
O=c1c2cc(I)ccc2nc(Cc2ccccc2Nc2ccccc2)n1NC1=NNC(c2ccccc2O)C1 (centres undefined)	Staphylococcus aureus	10 mm
O=c1c2cc(I)ccc2nc(Cc2ccccc2Nc2ccccc2)n1NC1=NNC(c2cccc(O)c2)C1 (centres undefined)	Staphylococcus aureus	12 mm
CN(C)c1ccc(C2CC(Nn3c(Cc4ccccc4Nc4ccccc4)nc4ccc(I)cc4c3=O)=NN2)cc1 (centres undefined)	Staphylococcus aureus	7 mm
COc1ccc(C2CC(Nn3c(Cc4ccccc4Nc4ccccc4)nc4ccc(I)cc4c3=O)=NN2)cc1 (centres undefined)	Staphylococcus aureus	10 mm
O=c1c2cc(I)ccc2nc(Cc2ccccc2Nc2ccccc2)n1NC1=NNC(c2ccccc2[N+](=O)[O-])C1 (centres undefined)	Staphylococcus aureus	16 mm
O=c1c2cc(I)ccc2nc(Cc2ccccc2Nc2ccccc2)n1NC1=NNC(c2ccc(O)cc2)C1 (centres undefined)	Staphylococcus aureus	10 mm
CC1(C)S[C@@H]2[C@H](NC(=O)Cc3ccccc3)C(=O)N2[C@H]1C(=O)O	Staphylococcus aureus	30 mm
O=c1c2cc(I)ccc2nc(Cc2ccccc2Nc2ccccc2)n1NC1=NNC(c2ccccc2)C1 (centres undefined)	Staphylococcus aureus	21 mm
